target: T1, AW2, C-terminally His-tagged recombinant product of positions 1 to 196 of GPC3 (human, UniProt P51654 25-196); assay: Western blot of CHO cell pellets, reducing
T1 construct: Expressed in CHO cells; cell pellets used in reducing Western blot; Construct is stated from position 1; also called AW2 (1-196); not shown: C-terminal His tag
T1 sequence (P51654 25-196): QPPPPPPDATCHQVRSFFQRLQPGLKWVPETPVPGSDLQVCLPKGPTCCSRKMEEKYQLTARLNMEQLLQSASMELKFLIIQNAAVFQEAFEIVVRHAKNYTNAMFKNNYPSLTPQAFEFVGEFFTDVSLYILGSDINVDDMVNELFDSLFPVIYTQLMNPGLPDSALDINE

binder: GT607 antibody (antibody, IgG1, V domains shown) VH: EVQLVESGGDVVRPGGSLKLSCAASGFTFSSYGMSWVRQLPDKRLEWVASVGNGGSYRYYPENLKGRFTISRDNTKNTLYLQISGLKSEDTAIYYCARRGAFPYFDVWGAGTTVTVSS VL: QIVLTQSPAIMSASPGEKVTLACSASSSVTYMHWYQQKSGTSPKRWIYETSKLASGVPPRFSGSGSGTSYSLTISTMEAEDAATYYCQQWSSNPLTFGAGTKLELKR
binding result: no binding
--
binder: GT30 antibody (antibody, V domains shown) VH: QVQLQQSGAELARPGASVKLSCRASGYTFTSYGISWMMQRTGQGLEWIGEIYPRSGITYYNEKFKGKATLTADKSSSTAYMQLSSLTSEDSAVYFCARDVSDGYLFPYWGQGTLVTVSA VL: DIQMTQSPASLSASVGETVTITCRTSENIYSYLAWYQQKQGKSPQLLVYNAKTLPEGVPSRFSGSGSGTQFSLKINSLQPEDFGSYYCQHHYGTPPTFGGGTKLEIKR
binding result: no binding
--
binder: GT165 antibody (antibody, IgG1, V domains shown) VH: QVQLQQSGAELVGPGASVKISCKAFGYTFTNHHINWVKQRPGQGLDWIGYINPYNDYTNYNQKFKGKATLTVDKSSSTAYMELSSLTSEDSAVYYCARSDPAWFAYWGQGTLVTVSA VL: DIQMTQSPSSLSASLGGKVTITCKASQDINKNIAWYQHKPGKGPRLLIWYTYTLQPGIPSRFSGSGSGRDYSFSISNLEPEDIATYYCLQYDNLPFTFGTGTKLEIKR
binding result: no binding
--
binder: GT114 antibody (antibody, IgG1, V domains shown) VH: DVQLQESGPGLVKPSQSLSLTCTVTGYSITSDSAWNWIRQFPGNKLEWMAYIMYSGITSYNPSLKSRISITRDTAKNQFFLQLNSVTTEDSATYYCSRGYWYFDVWGAGTTVTVSS VL: QIVLTQSPAIMSASLGEEITLTCSASSSVSYMHWYQQKSGTSPKLLIYSTSILASGVPSRFSGSGSGTFYSLTISSVEAEDAADYYCLQWITYRTFGGGTKLEIKR
binding result: no binding
